Tested on: SF-268
Assay: NCI tumour cell line growth inhibition, 48 h
Activity calls are given as the source filed them. Rule as the data show it: active = GI50 up to about 1.1 µM and inactive = higher.
Outcome codes: active, inactive

# compound, classification
rows = [
    ("C=C1C(=O)O[C@H]2[C@@H](O)[C@H](C)CCC[C@]3(C)O[C@H]3CC[C@@]3(C)O[C@@H]3C[C@@H]12", "inactive"),
    ("COc1cc2c(cc1OC)C(=O)N(c1ccc(O)cc1)C2", "inactive"),
    ("C[C@@H]1[C@@H](c2ccccc2)O[B-](c2ccccc2)(c2ccccc2)[N+]1(C)C", "inactive"),
    ("COc1ccccc1-c1cc(O)c2cccnc2n1", "inactive"),
    ("O=C1CC(NC(=O)C(F)(F)F)c2c(Br)sc(N3CCNCC3)c21 (stereo not drawn)", "inactive"),
    ("C1=NN(Cc2ccccc2)C(N(Cc2ccccc2)Cc2ccccc2)N1 (stereo not drawn)", "inactive"),
    ("COc1cc2cc(C(=O)N3CC(CCl)c4c3cc(NC(=O)C(C)Nc3c([N+](=O)[O-])cc(C(=O)NCCN(C)C)cc3[N+](=O)[O-])c3ccccc43)[nH]c2c(OC)c1OC (stereo not drawn)", "active"),
    ("CCC1(O)C(=O)OCc2c1cc1n(c2=O)Cc2cc3c(N)cccc3nc2-1 (stereo not drawn)", "active"),
    ("Oc1cc(F)cc2cccnc12", "active"),
    ("CC12OC1(C)C1C(=O)OCC1C2=O (stereo not drawn)", "inactive"),
    ("COc1c2c(c(CC=C(C)C)c3oc(=O)c(-c4ccc(O)cc4)c(O)c13)OC(C)(C)C=C2", "inactive"),
    ("[O-][n+]1onc(-c2ccccc2)c1-c1no[n+]([O-])c1-c1c(-c2ccccc2)no[n+]1[O-]", "inactive"),
    ("CC(=O)Oc1ccccc1C(=O)Nc1ncc([N+](=O)[O-])s1 [NITAZOXANIDE]", "inactive"),
    ("C=CCC1(C)CCCCC1(O)C[S+]([O-])c1ccccc1 (stereo not drawn)", "inactive"),
    ("O=C(NC(=O)c1c(Cl)nc2sccn12)Nc1ccc(Cl)cc1", "inactive"),
    ("COc1cccc(-n2c(N)c(-c3nc4cc(C(F)(F)F)ccc4s3)c3ccc([N+](=O)[O-])cc3c2=O)c1", "inactive"),
    ("CC(=O)OCC1OC(n2c3c(c(-c4ccco4)c(C#N)c2=S)CCC3)C(OC(C)=O)C(OC(C)=O)C1OC(C)=O (stereo not drawn)", "inactive"),
    ("CN(/N=C1\\C(=O)Nc2ccccc21)c1ccccc1", "inactive"),
    ("C/C=C/C(C/C=C(\\C)CO[Si](C)(C)C(C)(C)C)O[Si](C)(C)C(C)(C)C (stereo not drawn)", "inactive"),
    ("COC(=O)c1cc2c(cc1C(=O)OC)[C@@]1(C)CCCC(C)(C)C1CC2 (stereo partly drawn)", "inactive"),
    ("Cc1ccc2[nH]c3c(c(=O)n(C)c(=O)n3C)c2c1", "inactive"),
    ("Cn1c(=O)nc2n(CCO)c(-c3ccccc3)c(-c3ccccc3)nc-2c1=O", "inactive"),
    ("O=c1cc(N2CCCC2)[nH]c(=O)n1-c1ccc(F)cc1", "inactive"),
    ("CCOC(=O)C1CCCN1C(=O)c1ccccc1Cl (stereo not drawn)", "inactive"),
    ("Cc1ccc(Nc2nc(-c3ccc(-c4ccc([N+](=O)[O-])cc4)o3)cs2)cc1", "inactive"),
    ("O=C1c2ccccc2N2OC3(N4CCCC4)CCCCC3C12c1ccccc1 (stereo not drawn)", "inactive"),
    ("COc1cc(/C=C/C(=O)OC[C@]23O[C@H]2[C@@H](OC2OC(C)C(O)C(O)C2O)C2C=CO[C@@H](OC4OC(CO)C(O)C(O)C4O)C23)ccc1O (stereo partly drawn)", "inactive"),
    ("CC(=O)Nc1ccc(C2[C@H]3C(=O)N(c4ccc(Cc5ccc(N6C(=O)[C@@H]7ON(c8ccccc8)C(c8ccc(NC(C)=O)cc8)[C@@H]7C6=O)cc5)cc4)C(=O)[C@H]3ON2c2ccccc2)cc1 (stereo partly drawn)", "inactive"),
    ("CSc1[nH]nc(N)c1C(=O)Nc1ccc(C)cc1", "inactive"),
    ("CC1(C)OP23(NC(=O)OC2(C(F)(F)F)c2ccccc2O3)OC1(C)C (stereo not drawn)", "inactive"),
    ("O=C(NN1C(=O)CS(=O)(=O)C1c1ccc(Cl)c(Cl)c1)c1ccncc1 (stereo not drawn)", "inactive"),
    ("CCOC(=O)Cc1nc2c(N)ncnc2n1C1OC(COC(C)=O)C(OC(C)=O)C1OC(C)=O (stereo not drawn)", "inactive"),
    ("CCC(/C=C/C1OC(=O)C=CC1C)=C\\C(C)C/C=C/C(C)=C/C(C)C(=O)C(C)C(O)C(C)C/C(C)=C/C(=O)O (stereo not drawn)", "active"),
    ("CC(=O)Oc1ccc2cc(Oc3ccc(Cl)c(Cl)c3)c(=O)oc2c1", "inactive"),
    ("O=S(=O)(O)c1c(Cl)c(Cl)c(O)c2ncccc12", "inactive"),
    ("O=C(NNC(=S)NC1CCCCC1)c1csc(NC(=S)NC2CCCCC2)n1", "inactive"),
    ("COc1ccc(/C=C2\\CCCCC2=O)cc1", "inactive"),
    ("COCC1N=C(c2cc(OC)c(OC)c(OC)c2-c2cc3c(cc2C2OCCCO2)OCO3)O[C@H]1c1ccccc1 (stereo partly drawn)", "inactive"),
]

Provenance of the data: ChEMBL document CHEMBL1201862
